assay: chemical genetic growth profiling, strain panel (AID 1159580);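 also: tested at 20 µM; growth read once vehicle control cultures reached saturation at 30 °C; 1 = growth at the plate median or of vehicle wells; lower values mean less growth of the strain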; conditions: S. cerevisiae deletion strains, growth OD, locus YFL009W, strain cdc4, stronger effect = lower value
Screen size: about 5,500 compounds; about 2,000 (36%) were called active. Another 18% or so got no clear call; they are omitted. The list shows a part of the results.
Reported normalized growth by item:
reportedMetric: normalized growth

                                    compound  measuredvalue
 0     N#CC(C#N)=Cc1ccc(-c2ccccc2C(F)(F)F)o1           0.94
 1  OC(CN1CCN(c2nc3ccc(Cl)cc3s2)CC1)Cn1ccc2ccccc21 (stereo unspecified)          0.993
 2            Cc1c(C(=S)Nc2ccccc2)sc2ccccc12          0.943
 3        O=C(NNc1ccc(I)cc1)c1cc(Cl)cc(Cl)c1          0.938
 4      O=C(/C=C/Sc1nc2ccccc2s1)c1ccc(Cl)cc1           0.98
 5       O=C(Nc1ccc(Cl)cc1)OCCSc1nc2ccccc2s1          0.981
 6  Cc1onc(-c2c(F)cccc2Cl)c1C(=O)ON=C1C2CC3CC(C2)CC1C3           1.06
 7  Cc1onc(-c2c(Cl)cccc2Cl)c1C(=O)NNc1c(Cl)cccc1Cl          0.974
 8  O=[N+]([O-])c1ccc2oc(C(O)c3ccc(-c4ccccc4)cc3)cc2c1 (stereo unspecified)              1
 9                S=c1[nH]nc(Nc2ccc(I)cc2)s1          0.845
10   CC(C)(C)c1ccc(C(=O)NNc2c(Cl)cccc2Cl)cc1          0.975

====

Listed here: items and their measured normalized growth.
assay: chemical genetic growth profiling, strain panel (AID 1159580);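 also: tested at 20 µM; growth read once vehicle control cultures reached saturation at 30 °C; 1 = growth at the plate median or of vehicle wells; lower values mean less growth of the strain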; details: S. cerevisiae deletion strains, growth OD, locus YDL101C, strain DUN1, stronger effect = lower value
Hit rate of the full screen: of about 5,500 compounds, about 2,000 (36%) were called active. Roughly 18% stayed inconclusive and do not appear here. The list shows a part of the results.
reportedMetric: normalized growth

compound	reportedMetric	measuredValue
OCc1ccccc1O	normalized growth	1.02
Oc1ccc(Cl)cc1Cc1cc(Cl)ccc1O	normalized growth	0.0631
COC(=O)C(O)c1ccccc1 (configuration not stated)	normalized growth	0.977
Cc1onc(-c2c(Cl)cccc2Cl)c1C(=O)NNc1c(Cl)cccc1Cl	normalized growth	0.976
COc1ccc(C(C)=O)cc1CSC(=NS(=O)(=O)c1ccccc1)Nc1cccc(F)c1	normalized growth	0.988
CCN(CC)CCNC(=O)c1c(-c2c(Cl)cccc2Cl)noc1C	normalized growth	1
CC(C(=O)O)c1ccc(C(=O)c2cccs2)cc1 (configuration not stated)	normalized growth	1.01
CC1=CC2C(CC1=O)C(C)=CCC2C(C)C (configuration not stated)	normalized growth	0.966
COc1cc(-c2coc3cc(OC)c(OC)c(OC)c3c2=O)cc(OC)c1OC	normalized growth	0.981
COc1cc(-c2coc3cc(OCc4ccccc4)c(OC)c(O)c3c2=O)cc(OCc2ccccc2)c1OC	normalized growth	0.99
COC(=O)c1c(-c2c(Cl)cccc2Cl)noc1NC(=O)NN1CCCCC1	normalized growth	1.01
N#CC(C#N)=Cc1ccc(-c2cc(C(F)(F)F)ccc2Cl)o1	normalized growth	1.03
COc1cc2c(cc1OC)C1Cc3ccc(OC)c(OC)c3CN1CC2 (configuration not stated)	normalized growth	1
Cc1onc(-c2ccccc2)c1NC(=O)Nc1c(Cl)cccc1Cl	normalized growth	0.988
c1ccc(-c2cc3c(nn2)CCc2nonc2-3)cc1	normalized growth	0.992
CC(=O)c1cnn(-c2ccccc2)c1C	normalized growth	0.985
Nc1ccc(N=Nc2ccccc2)c(N)n1	normalized growth	0.968
Cc1c(C(=O)N(Cc2ccccc2)Cc2cccs2)cnn1-c1ccc(Cl)cc1	normalized growth	0.99
Cc1onc(-c2c(Cl)cccc2Cl)c1C(=O)OCC(F)(F)F	normalized growth	0.984
CO/N=C(\C(=O)N[C@@H]1C(=O)N2C(C(=O)O)=C(CSc3nc(=O)c(O)nn3C)CS[C@H]12)c1csc(N)n1	normalized growth	0.996
Cc1c(Cl)cccc1Nc1ccccc1C(=O)O	normalized growth	0.929
NC(N)=NS(=O)(=O)c1ccc(N)cc1	normalized growth	1.02
O=[N+]([O-])c1ccc(Sc2ssc(=S)c2-c2ccccc2)nc1	normalized growth	0.961
COc1cc(-c2coc3cc(OCc4ccccc4)c(OC)c(O)c3c2=O)cc(O)c1OC	normalized growth	0.918
COc1cc2occ(-c3ccccc3)c(=O)c2c(OC)c1C	normalized growth	0.953
O=C(/C=C/Sc1nc2ccccc2s1)c1ccc(Cl)cc1	normalized growth	0.975
CCOC(=O)Cn1c(=O)c(C#N)cn(C(C)C)c1=O	normalized growth	1.02
O=C(CSCc1cccc2ccccc12)NNC(=S)Nc1ccccc1Cl	normalized growth	0.987
CO/N=C(\C(=O)N[C@@H]1C(=O)N2C(C(=O)O)=C(COC(C)=O)CS[C@H]12)c1csc(N)n1	normalized growth	0.99
CC(C)C(=O)Nc1ccc([N+](=O)[O-])c(C(F)(F)F)c1	normalized growth	0.993
O=C(CSCc1cccc2ccccc12)NNC(=O)c1ccc(F)cc1	normalized growth	1
COC(=O)[C@@H]1OC(=O)[C@H]2O[C@@]23[C@@]1(C)CCC1[C@@]2(C)CCC(=O)C(C)(C)C2C[C@@H](OC(C)=O)[C@]13C (some centres not stated)	normalized growth	1.02
O=C(C1CCCCC1)N1CC(=O)N2CCc3ccccc3C2C1 (configuration not stated)	normalized growth	1.01
Cc1onc(-c2c(Cl)cccc2Cl)c1C(=O)Oc1ccc(Cl)c(Cl)c1	normalized growth	0.996
CC(=O)Oc1c(C)cccc1C(=O)O	normalized growth	1.01
CC(C)n1cc(C#N)c(=O)n(Cc2ccccc2)c1=O	normalized growth	1.02
Cc1c(-c2ccnn2C(=O)c2ccco2)cnn1-c1ccccc1	normalized growth	0.978
N#CC(C#N)=Cc1ccc(-c2ccccc2C(F)(F)F)o1	normalized growth	0.925
O=C1NC(=O)C(=O)C(=O)N1	normalized growth	1.02
Cc1cc(-c2ccccc2)nnc1NCCN1CCOCC1	normalized growth	0.995
C=C1C(=O)O[C@@H]2C[C@@]3(C)CCC[C@H](C)C3=C[C@H]12	normalized growth	0.85
O=C(O)c1cc2cc(Cc3cccnc3)ccc2o1	normalized growth	1.01
O=C(c1ccccc1)c1cc2c(cc1Br)OCCO2	normalized growth	0.897
ClC1=C(C=Nc2ccc(Cl)cc2)CSc2ccc(Cl)cc21	normalized growth	0.945
NS(=O)(=O)c1cc2c(cc1Cl)NC(C(Cl)Cl)NS2(=O)=O (configuration not stated)	normalized growth	1
S=c1[nH]nc(Nc2ccc(I)cc2)s1	normalized growth	0.917
Cc1cccc(Nc2ccccc2C(=O)O)c1C	normalized growth	0.994

Hello, the source for this data is PubChem BioAssay AID1159580, in case you need it.
